Source listed as PubChem BioAssay.

- RUN DESCRIPTION: drug combination growth inhibition, ovarian cancer – cell-based, oncology-focused library, rucaparib conditional, profiling panel (AID 1508598)
- CONDITION CONTEXT: patient-derived ovarian cancer cells, CellTiter-Glo viability, 144 h; at 0.0195 µM; OCI-P5x cells; without rucaparib; stronger effect = lower value
*1 amine or outer side, *2 acyl side, *3 side chain or, on linkers, in order; H or OH if unused. Where a SMILES comes first, the peptide text is derived from it. Bridges are numbered along the chain shown (N, C = ends). Roman numbers before positions name the chains, in order. [ ]: non-standard residue; d: D form. The star is where a group is joined. Hexamethylenediamine = C(CCCN[*:2])CCN[*:1]; Dip = N[C@H](C(=O)O)C(c1ccccc1)c1ccccc1; Chg = N[C@H](C(=O)O)C1CCCCC1; NMeA = CN[C@@H](C)C(=O)O; Cbz = O=C(OCc1ccccc1)*; CH2F = FC*
// reported viability for each item listed

[
  {
    "MOLECULE": "CCC(C)(C)C(=O)O[C@@H]1C[C@@H](C)C=C2C=C[C@H](C)[C@@H](CC[C@@H]3C[C@@H](O)CC(=O)O3)[C@H]21",
    "UNIT LABEL": "%",
    "viability": 101
  },
  {
    "MOLECULE": "O=C(NCC1(c2nc(-c3ccccc3)cs2)CCOCC1)c1cccc(-c2noc(C(F)(F)F)n2)c1",
    "UNIT LABEL": "%",
    "viability": 89.1
  },
  {
    "MOLECULE": "CN[C@@H](C)C(=O)N[C@H](C(=O)N1CCC[C@H]1C(=O)N[C@H](C(=O)NCCCCCCNC(=O)[C@@H](NC(=O)[C@@H]1CCCN1C(=O)[C@@H](NC(=O)[C@H](C)NC)C1CCCCC1)C(c1ccccc1)c1ccccc1)C(c1ccccc1)c1ccccc1)C1CCCCC1 (I: H-[NMeA][Chg]P[Dip] / II: H-[NMeA][Chg]P[Dip]; linker I:C-II:C via Hexamethylenediamine)",
    "UNIT LABEL": "%",
    "viability": 99.5
  },
  {
    "MOLECULE": "CC(=O)O[C@]12CO[C@@H]1C[C@H](O)[C@]1(C)C(=O)[C@H](O)C3=C(C)[C@H](OC(=O)[C@H](O)[C@@H](NC(=O)OC(C)(C)C)c4ccccc4)C[C@](O)([C@H](OC(=O)c4ccccc4)C21)C3(C)C (stereo partly specified)",
    "UNIT LABEL": "%",
    "viability": 16.8
  },
  {
    "MOLECULE": "CCNC(=O)c1noc(-c2cc(Cl)c(O)cc2O)c1-c1ccc(OC)cc1",
    "UNIT LABEL": "%",
    "viability": 82.6
  },
  {
    "MOLECULE": "CC1(C)O[C@@H]2C[C@H]3[C@@H]4CCC5=CC(=O)C=C[C@]5(C)[C@]4(F)[C@H](O)C[C@]3(C)[C@@]2(C(=O)CO)O1",
    "UNIT LABEL": "%",
    "viability": 107
  },
  {
    "MOLECULE": "CC(C)(C(=O)NCC(F)(F)C(F)(F)F)C(=O)N[C@H]1C(=O)Nc2ccccc2-c2ccccc21",
    "UNIT LABEL": "%",
    "viability": 90.2
  },
  {
    "MOLECULE": "CCc1c2c(nc3ccc(OC(=O)N4CCC(N5CCCCC5)CC4)cc13)-c1cc3c(c(=O)n1C2)COC(=O)[C@@]3(O)CC",
    "UNIT LABEL": "%",
    "viability": 103
  },
  {
    "MOLECULE": "C=CCNC1=C2C[C@@H](C)C[C@H](OC)[C@H](O)[C@@H](C)/C=C(\\C)[C@H](OC(N)=O)[C@@H](OC)/C=C\\C=C(\\C)C(=O)NC(=CC1=O)C2=O",
    "UNIT LABEL": "%",
    "viability": 115
  },
  {
    "MOLECULE": "CC(=O)O[C@H]1C(=O)[C@@]2(C)C([C@H](OC(=O)c3ccccc3)[C@]3(O)C[C@H](OC(=O)[C@H](O)[C@@H](NC(=O)c4ccccc4)c4ccccc4)C(C)=C1C3(C)C)[C@]1(OC(C)=O)CO[C@@H]1C[C@H]2O (stereo partly specified)",
    "UNIT LABEL": "%",
    "viability": 16.9
  },
  {
    "MOLECULE": "COC(=O)C[C@H](NC(=O)[C@H](C)NC(=O)[C@@H](NC(=O)OCc1ccccc1)C(C)C)C(=O)CF (Cbz-Val-Ala-Asp(OMe)-CH2F)",
    "UNIT LABEL": "%",
    "viability": 102
  }
]

---

Reported values of cell count for individual entries
- RUN DESCRIPTION: viability loss with induced miR-34 in A549 – imaging, A549 dox-inducible miR-34, nuclei and caspase counts, primary screen (AID 1347080)
- CONDITION CONTEXT: A549 miR-34 inducible, Hoechst nuclei count, 48 h; measured here: total cells without miR-34 induction

[
  {
    "COMPOUND": "CN1CCCC1CCOC(C)(c1ccccc1)c1ccc(Cl)cc1 (stereo unspecified)",
    "cell count": 3330
  },
  {
    "COMPOUND": "C[C@H]1CC2C3CCC4=CC(=O)C=C[C@]4(C)[C@@]3(Cl)[C@@H](O)C[C@]2(C)[C@@]1(O)C(=O)CO (stereo partly specified)",
    "cell count": 7840
  },
  {
    "COMPOUND": "CCCCC/C=C\\C/C=C\\CCCCCCCC(N)=O",
    "cell count": 6320
  },
  {
    "COMPOUND": "CCCC[C@@]1(C2CCCC2)Cc2cc(OCC(=O)O)c(Cl)c(Cl)c2C1=O",
    "cell count": 9260
  },
  {
    "COMPOUND": "CCOc1cc(C(CS(C)(=O)=O)N2C(=O)c3cccc(NC(C)=O)c3C2=O)ccc1OC (stereo unspecified)",
    "cell count": 9420
  },
  {
    "COMPOUND": "CCCCOC(=O)NS(=O)(=O)c1sc(CC(C)C)cc1-c1ccc(Cn2c(CC)nc3c(C)cc(C)nc32)cc1",
    "cell count": 6080
  },
  {
    "COMPOUND": "C=C1C(=O)O[C@@H]2[C@H]3O[C@]3(C)CCC=C(C)CC[C@@H]12",
    "cell count": 5500
  },
  {
    "COMPOUND": "O=C(Nc1ccccc1Br)NC1CCN(c2ccc(C(F)(F)F)cn2)C1 (stereo unspecified)",
    "cell count": 9910
  },
  {
    "COMPOUND": "c1ccc2c(c1)CCC[C@H]2Nc1nc2ccccc2[nH]1",
    "cell count": 7150
  },
  {
    "COMPOUND": "C[C@](Cc1ccc(O)c(O)c1)(NN)C(=O)O",
    "cell count": 9620
  },
  {
    "COMPOUND": "CN(C)C(=O)c1ccc(S(=O)(=O)c2ccc(NC(=O)C(C)(O)C(F)(F)F)c(Cl)c2)cc1 (stereo unspecified)",
    "cell count": 7310
  },
  {
    "COMPOUND": "O=C(O)c1cc2cccc([N+](=O)[O-])c2[nH]1",
    "cell count": 9040
  },
  {
    "COMPOUND": "CC1C(=O)N(C)C(=O)c2nc[nH]c21 (stereo unspecified)",
    "cell count": 10700
  },
  {
    "COMPOUND": "CN1CC(O)C(O)C(O)C1CO (stereo unspecified)",
    "cell count": 10800
  },
  {
    "COMPOUND": "Cn1nc(-c2cccnc2)c2[nH]c(-c3ccc4c(c3)OCCO4)nc21",
    "cell count": 6130
  },
  {
    "COMPOUND": "CCn1ccnc1CN(C)C(=O)c1cc(-c2cnc(N)nc2)nc2cc(C)ccc12",
    "cell count": 9540
  },
  {
    "COMPOUND": "CN(C)C1C(=O)C(C(=O)NCN2CCCC2)=C(O)[C@@]2(O)C(=O)C3=C(O)c4c(O)cccc4[C@@](C)(O)C3CC12 (stereo partly specified)",
    "cell count": 8650
  },
  {
    "COMPOUND": "Cn1nc(C(C)(C)C)cc1NC(=O)Nc1ccc(Cl)cc1",
    "cell count": 8720
  },
  {
    "COMPOUND": "Cc1nn(C)cc1-c1ccnc(N2CCCN(c3ccccc3)CC2)n1",
    "cell count": 6820
  },
  {
    "COMPOUND": "C[C@]12C=CC(=O)C=C1CC[C@@H]1[C@H]2C(O)C[C@@]2(C)[C@H]1CC[C@@]2(O)C(=O)CO (stereo partly specified)",
    "cell count": 5970
  },
  {
    "COMPOUND": "CCCCCCCCCCCCCCCC(=O)OCC(COP(=O)(O)O)OC(=O)CCCCCCCCCCCCCCC (stereo unspecified)",
    "cell count": 6340
  },
  {
    "COMPOUND": "CC(NC(=O)Cc1cc(F)cc(F)c1)C(=O)NC(C(=O)OC(C)(C)C)c1ccccc1 (stereo unspecified)",
    "cell count": 8530
  },
  {
    "COMPOUND": "Cc1nsc(NC(=O)NC2Cc3ccccc3C2)n1",
    "cell count": 9710
  },
  {
    "COMPOUND": "NC(=O)CCCSc1nc(N)nc(-c2c(Cl)cc3c4c(cccc24)COC3)n1",
    "cell count": 2570
  },
  {
    "COMPOUND": "O=C(NCC(c1ccccc1)c1ccccc1)Nc1nncs1",
    "cell count": 8970
  },
  {
    "COMPOUND": "C=CC1CN2CCC1C[C@@H]2[C@H](O)c1ccnc2ccc(OC)cc12 (stereo partly specified)",
    "cell count": 5440
  },
  {
    "COMPOUND": "Cc1cc(C)c(-c2csc(NC(=O)c3ccccc3)n2)c(C)c1",
    "cell count": 4340
  },
  {
    "COMPOUND": "Nc1nc(OCC2CCCCC2)c2[nH]cnc2n1",
    "cell count": 4990
  },
  {
    "COMPOUND": "CCCCCCCCCCC/C=C\\C/C=C\\CCCC(=O)O",
    "cell count": 5820
  },
  {
    "COMPOUND": "O=C1CC(c2ccc(O)cc2)Oc2cc(O)ccc21 (stereo unspecified)",
    "cell count": 9500
  },
  {
    "COMPOUND": "CNC(=O)C(Cc1ccccc1)NC(=O)C(CC(C)C)C(CSc1cccs1)C(=O)NO (stereo unspecified)",
    "cell count": 7870
  },
  {
    "COMPOUND": "CC(CCC(=O)O)C1CC[C@H]2[C@@H]3CC(O)[C@@H]4CC(O)CC[C@]4(C)[C@@H]3CC[C@]12C (stereo partly specified)",
    "cell count": 10300
  },
  {
    "COMPOUND": "Cc1cc2c(C(=O)NCC(C)c3ccccc3)c(O)c(O)cc2c(O)c1-c1c(C)cc2c(C(=O)NCC(C)c3ccccc3)c(O)c(O)cc2c1O (stereo unspecified)",
    "cell count": 1910
  },
  {
    "COMPOUND": "CO[C@H]1[C@@H]([C@@]2(C)O[C@@H]2CC=C(C)C)[C@]2(CC[C@H]1OC(=O)/C=C/C=C/C=C/C=C/C(=O)O)CO2",
    "cell count": 7000
  },
  {
    "COMPOUND": "N[C@@H](Cc1ccc(O)c(I)c1)C(=O)O",
    "cell count": 10400
  },
  {
    "COMPOUND": "CN(CCc1ccccn1)C(=O)c1ccc2sc(N)nc2c1",
    "cell count": 9520
  },
  {
    "COMPOUND": "C=CCNC1=C2CC(C)CC(OC)C(O)C(C)C=C(C)C(OC(N)=O)C(OC)C=CC=C(C)C(=O)NC(=CC1=O)C2=O (stereo unspecified)",
    "cell count": 1820
  },
  {
    "COMPOUND": "CC1=C(CC(=O)O)c2cc(F)ccc2/C1=C/c1ccc(S(C)=O)cc1 (stereo unspecified)",
    "cell count": 10600
  },
  {
    "COMPOUND": "COc1c(C=O)c(O)cc2c1C(=O)c1ccccc1C2=O",
    "cell count": 3080
  },
  {
    "COMPOUND": "CC(C)n1cc(-c2cc(C(=O)N(C)Cc3ccncc3)c3cc(F)ccc3n2)cn1",
    "cell count": 8290
  },
  {
    "COMPOUND": "O=C(c1cc(O)c(O)c([N+](=O)[O-])c1)c1ccccc1F",
    "cell count": 5940
  }
]
